# amyloid nucleation score listing for each entry below
Experiment: amyloid nucleation score (Sup35N fusion, yeast selection) (log enrichment); library NNK2; higher = more nucleation; inactive = no reads after selection;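 also: zero at mode of non-aggregating sequences after 7 days selection at 30°C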
Answer with the value's number alone.

Illustrative cases are given below, each with its answer.
- KTSWFGYSWNDHHSIRHQCS: 0.84
- EIHCPMITMISVGRDSMKFN: 0.996
- GDYTYRG: 0.773
- FDYKSKKGRNNDWRTVCCVM: 2.21
- AYHTMGGWLRVAG: 0.005

What value of measured amyloid nucleation score is listed for ISSHVSCKSAFEAS ? 0.395

What value of measured amyloid nucleation score is listed for DGTNFDR ? -0.92

What value of measured amyloid nucleation score is listed for LWLVSKAYRYLPYSDWKSAL ? 0.161

What value of measured amyloid nucleation score is listed for RTEGRGCRAAWSK ? 0.101

What value of measured amyloid nucleation score is listed for ISFNQHTLSYKNVIFNCAFE ? 4.16

What value of measured amyloid nucleation score is listed for QNFNILIGRGDVY ? 1.6

What value of measured amyloid nucleation score is listed for NSRRQERWCFIMTLVDFDVV ? -0.431

* * *

Assay: amyloid nucleation score (Sup35N fusion, yeast selection) (log enrichment); library NNK3; higher = more nucleation; inactive = no reads after selection
measured parameter: amyloid nucleation score

• NGIVPLSHLFYIGDSVKWWG = inactive
• PMAELIWDLVLRLKLSNKKR = 1.43
• LMGTSIPSKQADLGTEFSNF = inactive
• LNLAKQCMLPSFPSYMVWYF = inactive
• YINSATRFDKFM = inactive
• RCVRVIFSVMGDWVFISKNE = inactive
• YAGFCPRGRSPKRG = inactive
• QDFRLLSALRF = inactive
• KLGIGFPWCGRLHIEHSKMR = inactive
• SKVRTVGRLEVSVRIVKTGL = 0.085

What value of measured amyloid nucleation score is listed for MVNLSLCLNVVAEGLNFDRF ? 1.66

* * *

Assay: amyloid nucleation score (Sup35N fusion, yeast selection) (log enrichment); library NNK1; higher = more nucleation; inactive = no reads after selection
# amyloid nucleation score listing for each entry below
Answer with the value's number alone.

- PVLRTSWTCWA: -0.254
- SRNLCSQSWIRTATV: 0.585
- HDNISLG: 3.39
- LLGASLNVKPESDFLLPAKR: 0.175
- HSGSAE: -1.28
- ASEVCKY: 0.375
- GSLIIHHQWFFVIAMRVSLS: 0.419
- HVRSWI: 1.76

What value of measured amyloid nucleation score is listed for GLYLNGPVINMWVVVASREV ? 7.51

What value of measured amyloid nucleation score is listed for HQNRDIIMMMSFCAGNTGYK ? 4.98

What value of measured amyloid nucleation score is listed for YVIKKWTTCVLDFWHHFSFR ? 0.583

What value of measured amyloid nucleation score is listed for ALSDFGDKLSPPEDLRLEHW ? 1.07

* * *

Assay: amyloid nucleation score (Sup35N fusion, yeast selection) (log enrichment); library NNK2; higher = more nucleation; inactive = no reads after selection
Would you mind labelling by amyloid nucleation score? At or over -0.2 is True, under is False.

• QLHIWVVIRYPLYLINKTVW = True
• VSYVYYSM = False
• QLYLTVTNGFVRCTTASDVL = True
• FAVFPLVPGRGPGLFENNRW = True
• HSLLLRWNGYSM = True

Please indicate if the recorded amyloid nucleation score for RAVEEYAVPS meets or exceeds -0.2. True

Please indicate if the recorded amyloid nucleation score for VVSFSVRSIPCSRVSFMAFS meets or exceeds -0.2. False

Please indicate if the recorded amyloid nucleation score for RKVFLRLCLLVWLNG meets or exceeds -0.2. False
